Hello, the source for this data is PubChem BioAssay AID1996, in case you need it.

- studyConditions: buffer; pH 7.4; 200.0 µM
Listed here are compounds together with their documented solubility kinetic.
measuredParameter: solubility kinetic

CS(=O)(=O)c1ccc(Cl)c(NC(=O)CNC(=O)c2ccc3c(c2)OCO3)c1: > 61.6 µg/mL
Nc1cc(OCC(F)(F)F)cc(OCC(F)(F)F)c1: > 43.4 µg/mL
CC(=O)C1C(c2ccc(F)cc2)c2c(noc2C)CC1(C)O (stereo unspecified): > 45.5 µg/mL
CN(C)S(=O)(=O)c1ccc(Cl)c(C(=O)NC2=NCCS2)c1: > 52.2 µg/mL
Cc1noc(C)c1C(=O)OCC(=O)NC1CCCCC1C (stereo unspecified): > 44.2 µg/mL
CCN(CC(=O)NCc1cccs1)C(=O)c1cccc(S(=O)(=O)N2CC(C)OC(C)C2)c1 (stereo unspecified): > 71.9 µg/mL
O=C(Cc1ccc(Cl)cc1)Nc1ccccn1: > 37 µg/mL
COc1ccc(S(=O)(=O)c2c[nH]c(=S)[nH]c2=O)cc1Cl: > 49.9 µg/mL
COCCN(C(=O)CSc1ccc2c(c1)OCCO2)c1c(N)n(CC(C)C)c(=O)[nH]c1=O: > 69.7 µg/mL
Cn1ccnc1C(=O)c1ccc(S(=O)(=O)N2CCCC2)cc1: > 47.9 µg/mL
Cn1c(C2CCCCC2)nc2cc(N)ccc21: > 34.4 µg/mL
COC(=O)c1sccc1NC(=O)c1ccc(C)cc1: < 0.6 µg/mL
COc1ccc(NC(=O)c2ccc(Cl)cc2)c[n+]1[O-]: > 41.8 µg/mL
CN(C)CCOC(=O)C(c1ccccc1)C1(O)CCCC1.Cl (stereo unspecified): > 49.2 µg/mL
COc1ccccc1/C=C/C(=O)OC(C)CN1CCCCC1.Cl (stereo unspecified): > 51 µg/mL
COc1ccc(S(=O)(=O)N2CCCCC2)cc1NC(=O)CCNC(=O)c1ccc(Cl)cc1: 4.3 µg/mL
CCc1nc2ccccc2n1CC(=O)Nc1cc(C)on1: > 42.6 µg/mL
Cc1ccc(NC(=O)CCN2CCC(C(N)=O)CC2)cc1: > 43.4 µg/mL
COc1ccccc1C(=O)Nc1ccccc1N1CCCCC1: 1 µg/mL
O=CC1=C(N2CCOCC2)/C(=C/c2ccc(Cl)cc2)CC1: 32.1 µg/mL
Cn1cccc1C(=O)OCC(=O)NC1CCS(=O)(=O)C1 (stereo unspecified): > 45 µg/mL
COc1ccccc1NC(=O)NCCN1CCCCC1: > 41.6 µg/mL
CC1CC(C)(C)NC(=S)N1CCC(=O)N1CCc2ccccc2C1 (stereo unspecified): 38.8 µg/mL
CCC(Oc1ccccc1)C(=O)Nc1ccccc1N1CCCCC1 (stereo unspecified): 0.7 µg/mL
c1ccc2[nH]c(-c3ccncc3)nc2c1: > 29.3 µg/mL
Cc1cccc(C(=O)NC2CCCCCCC2)c1: 8.9 µg/mL
N#Cc1nc(-c2ccc([N+](=O)[O-])cc2)oc1N1CCCCC1: 1.3 µg/mL
CC1CN(C(=O)Nc2ccc(Br)cc2Cl)CC(C)O1 (stereo unspecified): 30.3 µg/mL
N#Cc1ccc(NC(=S)NCCN2CCOCC2)cc1: > 43.6 µg/mL
CCn1c(C)nc2cc(N)ccc21.Cl: 34.3 µg/mL
Cc1ccnc(NC(=O)CCC(=O)c2cc(C)sc2C)c1: 3.7 µg/mL

----------
Listed here are compounds together with their documented solubility kinetic.
- studyConditions: buffer; pH 7.4; 200.0 µM
measuredParameter: solubility kinetic

CCOc1cc(S(=O)(=O)Nc2ccncc2)ccc1F: > 44.4 µg/mL
Cc1ccc(OC(C)C(=O)N2CC(=O)Nc3ccccc32)cc1 (stereo not given): > 46.6 µg/mL
COc1cccc(NC(=O)c2ccc3c(c2)CCN3S(C)(=O)=O)c1: > 52 µg/mL
O=C(/C=C/Nc1ccc(F)cc1F)c1ccc(Br)cc1: < 0.7 µg/mL
Cc1cc(-c2nc3ccccc3c(=O)o2)ccc1[N+](=O)[O-]: < 0.3 µg/mL
CCc1cccc(C)c1NC(=O)CC(C)(C)CC(=O)O: > 41.6 µg/mL
O=C(CN1C(=O)NC2NC(=O)NC21)N/N=C/c1ccc(F)cc1 (stereo not given): > 48 µg/mL
CCOc1ccccc1NC(=O)c1oc2ccccc2c1NC(=O)C1CCCO1 (stereo not given): < 0.4 µg/mL
CN(C)c1ccc(CN2CCC(C(N)=O)CC2)cc1.O=C(O)C(=O)O: > 52.7 µg/mL
Cc1ccc(/C=N/n2c(C)nc3ccccc3c2=O)o1: > 40.1 µg/mL

----------
- studyConditions: buffer; pH 7.4; 200.0 µM
Listed here are compounds together with their documented solubility kinetic.
measuredParameter: solubility kinetic

O=C(NC(=O)N1CCCCCC1)c1ccccc1: > 36.9 µg/mL
CN(CC(=O)NCCc1ccccc1)Cc1ccco1: > 40.9 µg/mL
C=C(C)c1cccc(C(C)(C)NC(=O)N2CCC(C(N)=O)CC2)c1: > 49.4 µg/mL
CSc1nsc(SC)c1C(=O)Nc1ccc(C(C)(C)C)cc1: < 0.4 µg/mL
C=CCn1c(O)c(C(CC)=NCc2ccco2)c(=O)[nH]c1=O: > 45.5 µg/mL
COc1ccc(-c2csc3ncn(Cc4ccccc4)c(=O)c23)cc1: 1.4 µg/mL
Cc1ccc2cc(CCNC(=O)CCCc3ccccc3)c(=O)[nH]c2c1: 2.2 µg/mL
O=C(CNC(=O)c1ccc2c(c1)OCO2)Nc1ncccc1O: > 47.3 µg/mL
CN1CCCN(C(=O)COc2cccc(C(F)(F)F)c2)CC1: > 47.4 µg/mL
CN(C)c1ccc(C(=O)OCC(=O)N2CCCC2)cc1: > 41.5 µg/mL
Cc1ccc(CC(=O)Nc2cc(C)ccn2)cc1: > 36 µg/mL
CCC(/C=N/NC(=O)c1ccccc1F)CC: > 35.4 µg/mL
COc1cccc(OC)c1C(=O)N1CCNCC1.O=C(O)C(=O)O: 49.7 µg/mL
Cc1ccc(CC(=O)NC2CCCc3ccccc32)cc1C (configuration not stated): 3.2 µg/mL
Cc1cccn2c(=O)c(C=O)c(N3CCC4(CC3)OCCO4)nc12: > 49.4 µg/mL
CC(C)COC(=O)n1c(SCC(N)=O)nc2ccccc21: 16.3 µg/mL
Cc1c(C(=O)O)sc2c1c(=O)n(Cc1ccccc1)c(=O)n2C: > 49.6 µg/mL

----------
Listed here are molecules together with their documented solubility kinetic.
- studyConditions: buffer; pH 7.4; 200.0 µM
measuredParameter: solubility kinetic (µg/mL)

O=C(Nc1ccc(OCc2ccccc2Cl)cc1)c1cccnc1: 1.8
Cc1sc(N)nc1-c1c(C)n(C)c2ccccc12: 37.6
Cc1ccc(CNc2c(C=O)c(=O)[nH]c3ccccc23)cc1: 2.2
Cc1ccccc1CNc1ncnc2cc(Cl)ccc12: 0.5

----------
- studyConditions: buffer; pH 7.4; 200.0 µM
measuredParameter: solubility kinetic

COc1cccc(OCc2ccc(Cl)cc2)c1C#N: < 0.6 µg/mL
Cc1cc2c(Nc3ccc(O)cc3)ncnc2s1.Cl: > 44.1 µg/mL
CCC1(C)SC(N)=NN1C(C)=O (stereo not drawn): > 28.1 µg/mL

----------
- studyConditions: buffer; pH 7.4; 200.0 µM
measuredParameter: solubility kinetic

Cc1ccc(NC(=O)C(C)Sc2nnc3ccccn23)cc1 (stereo not given): > 46.9 µg/mL
CCCCn1c(CCNC(=O)c2ccco2)nc2ccccc21: > 46.7 µg/mL
COc1ccc(CCC(=O)OCC(=O)c2ccc[nH]2)cc1OC: > 47.6 µg/mL
CC(C)Nc1nc(-c2cccnc2)nc(-c2ccccc2)c1C#N: < 0.1 µg/mL
CCOc1ccc(N=C2NC(=O)CS2)cc1: > 35.4 µg/mL
CC(C)Sc1ccccc1C(=O)Nc1ccc2c(c1)n(C)c(=O)n2C: > 53.3 µg/mL
Cc1nc(Nc2ccccc2O)c2oc3ccccc3c2n1: < 0.2 µg/mL
O=C(NC1CCCCC1)c1cc(-c2ccccc2Cl)on1: < 0.3 µg/mL
O=c1c2ccccc2nc(/C=C/c2ccc(O)cc2)n1-c1ccccc1O: 5.2 µg/mL
O=C(OCC(=O)N1CCC(Cc2ccccc2)CC1)c1cccnc1Cl: 46.2 µg/mL
O=C(Nc1ccc(C(=O)Nc2ccccc2Cl)cc1)c1cccnc1: 2.3 µg/mL
CC(=O)N1CCC(C(=O)NCCOc2cccc(C)c2)CC1: > 45.7 µg/mL
CC(C)CN1C(=O)c2ccc(NC(=O)Cc3ccccc3)cc2C1=O: < 0.4 µg/mL
O=C(N/C(=C/c1ccccc1Cl)C(=O)N1CCCC1)c1ccccc1: > 53.2 µg/mL
CN1CCN(S(=O)(=O)c2ccccc2)CC1: 34.6 µg/mL
O=C(NC1CCC1)C1CCC(=O)N(Cc2ccccc2F)C1 (stereo not given): > 45.7 µg/mL
CCOP(=O)(OCC)/C(=N/OC(=O)c1cccc([N+](=O)[O-])c1)C(N)=O: 55 µg/mL
COc1ccc(-c2onc3ccc(C(=O)/C=C/N(C)C)cc23)cc1: 9.3 µg/mL
CCOC(=O)C1CCN(C(=O)CSc2nc(N)cc(=O)[nH]2)CC1: > 51.1 µg/mL
O=C1NC(=Nc2ccccc2Br)SC1(CO)CO: > 49.7 µg/mL
